- tested target: human ether-à-go-go-related gene (hERG) potassium channel (human, UniProt Q12809);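 note: peak tail current of the secondary pulse compared with the same well before compound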
- Sequence (Q12809 whole entry, looked up): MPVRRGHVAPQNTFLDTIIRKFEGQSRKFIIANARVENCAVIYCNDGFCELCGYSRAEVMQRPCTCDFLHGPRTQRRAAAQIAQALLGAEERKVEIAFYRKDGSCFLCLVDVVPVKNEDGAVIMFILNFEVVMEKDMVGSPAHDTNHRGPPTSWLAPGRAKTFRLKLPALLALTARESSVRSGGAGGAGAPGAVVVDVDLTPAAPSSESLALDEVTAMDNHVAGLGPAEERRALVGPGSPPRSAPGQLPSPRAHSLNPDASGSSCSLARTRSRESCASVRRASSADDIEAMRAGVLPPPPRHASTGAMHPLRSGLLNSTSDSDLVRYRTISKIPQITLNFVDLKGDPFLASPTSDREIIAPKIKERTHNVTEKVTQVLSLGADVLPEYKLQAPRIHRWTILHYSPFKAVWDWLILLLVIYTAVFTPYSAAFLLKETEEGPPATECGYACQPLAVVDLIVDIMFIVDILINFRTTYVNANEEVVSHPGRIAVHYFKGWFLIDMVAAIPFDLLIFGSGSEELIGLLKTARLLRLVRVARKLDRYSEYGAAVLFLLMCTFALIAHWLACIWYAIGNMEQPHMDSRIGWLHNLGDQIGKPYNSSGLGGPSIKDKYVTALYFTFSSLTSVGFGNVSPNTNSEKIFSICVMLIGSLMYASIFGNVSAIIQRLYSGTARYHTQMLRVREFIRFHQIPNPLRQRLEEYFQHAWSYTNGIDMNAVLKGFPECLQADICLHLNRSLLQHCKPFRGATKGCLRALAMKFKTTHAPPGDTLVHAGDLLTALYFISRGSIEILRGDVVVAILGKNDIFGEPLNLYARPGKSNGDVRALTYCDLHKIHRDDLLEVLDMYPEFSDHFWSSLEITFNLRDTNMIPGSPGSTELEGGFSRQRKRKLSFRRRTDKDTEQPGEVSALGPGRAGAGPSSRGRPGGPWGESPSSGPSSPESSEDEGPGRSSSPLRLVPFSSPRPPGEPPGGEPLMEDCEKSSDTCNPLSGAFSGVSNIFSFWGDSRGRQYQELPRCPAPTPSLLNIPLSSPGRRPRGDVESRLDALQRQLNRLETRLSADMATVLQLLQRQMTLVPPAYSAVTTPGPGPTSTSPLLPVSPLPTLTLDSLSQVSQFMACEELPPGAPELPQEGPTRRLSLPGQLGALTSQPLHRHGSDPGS
- assay name: primary screen, population patch clamp on CHO cells stably expressing hERG; higher = less effect of the substance
- Description: Briefly, Chinese hamster ovary (CHO) cells stably expressing the hERG channel were dislodged from tissue culture flasks and dispensed into PPC plates. […] During the recording, background leak currents were estimated by a 100 ms step to -80 mV from an initial holding potential of -70 mV and subtracted from the subsequent current measurement. The campaign was conducted in two phases using slight differences in recording protocol. […]
In all, about 310,000 compounds went through this assay and about 14,000 (4.5%) showed an effect of 50% or more. The effect is printed as a negative number. The sample holds strong results, similar compounds and a random draw of the others, so the mix is not that of the screen.
assay readout: hERG current change (%, negative = inhibition) at 10uM
Could you write the number and then its unit?

Here's what some known entries look like.
NC(=O)C1(N2CCCCC2)CCN(Cc2ccc(Br)cc2)CC1 :: -51%
CC(=O)c1cnc2c(-c3ccc(Cl)cc3)cnn2c1C :: -1.45%
O=c1c2ccccc2[nH]c(=S)n1CCCN1CCN(C2CCCCC2)CC1 :: -53.9%
O=C(c1cc2nc(-c3ccco3)cc(C(F)(F)F)n2n1)N1CCN(c2ccc(F)cc2)CC1 :: -34.5%
CCC1CCCCN1CCn1c(=S)[nH]c2cc(OC)c(OC)cc2c1=O (stereo not shown) :: -25.4%

Working through the 4 compounds below one at a time, give hERG current change (%, negative = inhibition) at 10uM for each.
1. CC1CCCCN1C(=O)/C(=C\c1ccccc1)c1ccccc1 (stereo not shown)
2. O=C(/C(=C/c1ccccc1Cl)c1ccccc1)N1CCOCC1
3. CN1CCN(C(=O)/C(=C\c2ccccc2)c2ccccc2)CC1
4. CC1CCCCN1CCCn1c(=S)[nH]c2ccccc2c1=O (stereo not shown)

[A]
1. -17.4%
2. -3.84%
3. -59.9%
4. -46.4%

Working through the 2 compounds below one at a time, give hERG current change (%, negative = inhibition) at 10uM for each.
1. CC(=O)Nc1c(C)nn(C(C)=O)c1C
2. CN1CCN(C(=O)/C(C#N)=C/c2ccc(F)cc2)CC1.Cl

[A]
1. 16.4%
2. 6.63%

Working through the 7 compounds below one at a time, give hERG current change (%, negative = inhibition) at 10uM for each.
1. CC1CC(C)CN(CCCn2c(=S)[nH]c3ccccc3c2=O)C1 (stereo not shown)
2. CN1CCN(C(=O)/C(=C/c2ccc(F)cc2)c2ccsc2)CC1.Cl
3. CCOC(=O)/C(C#N)=C/c1ccc(OC(=O)c2ccccn2)cc1
4. CCCCn1c(=S)[nH]c2ccccc2c1=O
5. COc1ccccc1N1CCN(CCCn2c(=S)[nH]c3ccccc3c2=O)CC1
6. C=CCn1c(=O)c2c(nc3n2CCN3c2cccc(Cl)c2C)n(C)c1=O
7. O=c1c2ccccc2[nH]c(=S)n1CCCN1CCN(c2ccccc2F)CC1

[A]
1: -53%; 2: -70.1%; 3: -5.99%; 4: 13.7%; 5: -61.6%; 6: -15%; 7: -2.57%

Working through the 2 compounds below one at a time, give hERG current change (%, negative = inhibition) at 10uM for each.
1. CN1CCN(C(=O)/C(=C/c2ccccc2)c2ccccc2)CC1
2. CN1CCN(C(=O)CCC(=O)c2ccc(F)cc2)CC1

[A]
1. -54.8%
2. 8.49%

Working through the 2 compounds below one at a time, give hERG current change (%, negative = inhibition) at 10uM for each.
1. CC1CC(C)CN(C(=O)CCCn2c(=S)[nH]c3ccccc3c2=O)C1 (stereo not shown)
2. COc1ccc(CNC(=O)c2cc(-c3ccccc3O)n[nH]2)cc1

[A]
1: -3.01%; 2: 5.51%
